# Measured On: FoccCSP-Asp64Ala (Frankliniella occidentalis, UniProt G4Y3X1, D64A)
# Sequence (G4Y3X1 entry or part of it D64A): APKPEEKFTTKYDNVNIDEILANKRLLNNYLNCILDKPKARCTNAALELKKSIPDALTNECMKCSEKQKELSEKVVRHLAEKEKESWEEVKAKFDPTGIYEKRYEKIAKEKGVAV
# Experiment Notes: Fluorescence (1-NPN) binding and competitive binding assay, FoccCSP mutant
Property: pKd
Give bare numbers, as −log10 of the molar value.

Quick check: pKd of c1ccc(Nc2cccc3ccccc23)cc1 [1-NPN, N-phenyl-1-naphthylamine, reference compound] ? 4.51

---

# Measured On: recombinant wild-type FintCSP1 (Frankliniella intonsa)
# Sequence (A0A891LVF4 entry or part of it): as the sequence (G4Y3X1 entry or part of it D64A) above, with E5D, V15I, N44A, A45D, M62A, A80V, E81D, K82H, E85T, K109Q counted along it
# Experiment Notes: Fluorescence (1-NPN) binding and competitive binding assay, wild-type FintCSP1
# Run Parameters: wild-type FintCSP1; displacement of 1-NPN; protein and 1-NPN both 2 μM, pH 7.4; calculated from IC50; read-out: Ki
Property: pKi
Answers are plain numbers, as −log10 of the molar value.

Quick check: pKi of CC/C=C\CC=O [cis-3-hexenal] ? 4.54
